Source: the domain aggregation screens of Martell et al. (2025)

Procedure Details: soluble fraction after stress (log2 fold change); higher = more stays soluble; pooled small domains, quantitative proteomics
Reported Conditions: stress: pH 4
Think of -0.3 as a floor: if soluble fraction (log2) stands on it or above, it is T; beneath it, F.

HMSDESRAEIVSSAKRLFQQYGYKKTTVSDIAKAMGKVKSAIYYYFPDKESLLRAVIDEEVG | T
HMSDLQTGDINQDGTVDEKDLSLLHSYNLELIKTISNAADLNEDGVINGLDEAYLKRLFLQNSDP | T
HMLVTQSITVPMAMSGIRLDAALAMLFPDHSRNRLKAWLDDGHILVDGAVWAGKQRLEGNEEITATLPEAK | T
HMDDGLTRLTPRENEVLELMAQGRSNTAIAERLVLSYGAVEKNVSSIFTKLDLPLDAGDHRRVLAVLRRLN | F
HMQSQIAQLYNPLLGYVKKRINSREDAEDLTQDIFLKLSKSNKDGVDNLKSWLYTIAKNTITDYYRKKKII | T
HMKYWTISDLYSKLEEDQVELGAFSEDSNKVTVLDRQGYEHVIKILSSDVPALTELFRKKKVRFAVAG | T
HMFQRLPFSFANRYKMVLEYQHPERPPVLYYVEPLKAAAILEVSRVIKSGFTPQAIVSDEFEKKLTEAYQR | T
HMQLPIGDVKLSVEHLSSGTALQDISFEVHRGEIFGFLGLVGAGRSETAETIFGLREKTDGKISIDGTVL | T
HMPQEMIEILATPNGWLRVRQGPGTNYPEITKVNSGEEFPLLEEKDSWFKIRIEEGQEGWISSQYAQKEE | T
HMRRFEFSDGSSNKFWQITRDGTSLTVTFGKIGTAGQTQLKELATEAAAIAEHDKLVKEKTKKGYAEVG | T
HMKQEFEMGLPNGVGEQMLAHAIEKFDVKLEHSEFGPKLIGTYEELEKAKVFLYEAIEARLNQLE | F
HMFPDLTGDELRIVDLLNTANDLQVNIITAKTNLPISRVTSLLFQLEMKGVVKPLAGGMYHLLG | T
HMIMMTLGEKIRSIRKAKGMTQQELAEKLNTTKQTIGKYEKGIVTNLPLFRINELARALSTTPAYLTGW | T
HMVGQIISNARKQEKMTQSELAEKVGTNKTYISRIEKGVIEPGVGLFFRIIDALGLKIEIVKP | F
HMHALSVKFSDEAAKTLPYDILSALRDVLALDPRPGYSRDENKIYRFEYADYNISFSVKDKTLTVLSAEK | T
HMEFDTEFVLRQAMHAFMQYGYAKTSMQKLKEATHLHPGSIYAAYGNKKGLFLAATEQYQKDR | T
HMEPFEQLLDRITSQTGKEPEEVVARMNELITERFDGNIRPEAALVIVAKRDNIQFMDLLDQLKQALL | F
HMPLLKIGAQGHDVRVVQEALQRAGYAIEGVTGIFDEATREAVLAFQRDQQLTESGTVDRATWHALRR | F
HMEVAVQFIEFKIPENHAWIGKEIREITFPPESILVLIIRDGKKLVPNGKTVLKEGDSLILSGKASD | F
HMDFKKKIIESWADIAETLRGLTVDSNISDWTTKQKNAYETLADKAELAGLSIADLNSILVELGYM | F
HMETMSYAEFNAIRIGKAKLMLADPSLKIWEISEAVGYTDTAHFARTFKKLEGMSANEYRNSL | F
HMSSIRDVVPEGLLSDREKLVLVLAFDRDLDGPDMARTLGISANTVRVLKARALKKLRQAGIQP | F
HMARTDVKLREVAQELLRMGLLEESLRPHLYRTALASMERLNATLEPLDLIARADEIRGLVFLAVRH | F
HMSTGGDLTQRERELLGLMARGLSNQEISKRLTIAMPTVKFHVTNILAKLHADNRTEAVLVALKNKLVAL | T
HMVKVEVKPNVLQWVIKRMDNFDRLKDQFPNIDKWINQESQPTLKQLEKLAKMTAVPLGYFFLPNPPEEK | F
HMFDTVTIGRKIAELRKAHNMTQFELADALGISFQAVSNWERGASMPDISKLPELAEIFGVTIDEVLGK | F
HMSDKNVYGKYKNVFLSDEEFSELKQFYPNDWSDRIETLSEGIELKGYKYKNYLLAIKKWAEYEGQKAD | F
HMSEPTVVAINETLTSERLDRYLTTQLPHISRGGIQRLLRKGNILVDGKPAKPTQHPVAGQTVEITWPIPK | T
HMDLTSDANLKEAKDQILNLLNDGKRHHVTEINKILLPPVQVQEALRFLIHEETVRVDASFLF | T
HMNNTIKFSVDSQNSGKRLDIFLTENIKNYTRSFLKKLIENRQVKLNNNFIISPSERVKFKDQININILQ | T
HMIINFDAIKLTTELNKYKRHKAIPNTFFDGTYTILDVRELYNDLTPKAQKIADELIEHYNVDVK | F
HMGVSLREVPVAEHGDWIGRPIKELGIPAEVLIVLVRRADGTTVVPKGGTVLQQGDMLVVNEWEE | F
HMISAQEQALRNLKLSNGMTWKALAKALGITERSILSYVAAPGTKGYREMPAEVWHKLENISGH | T
